Reference for the values: patent US20230183352A1

Target: T1, Claudin 18.2 (CLDN18.2), expressed on CHOS-CLDN 18.2 / HEK293-CLDN 18.2 / HCC827-CLDN 18.2 cells (human, UniProt P56856-2 1-261)
T1 construct: whole, on cells; The species is not repeated for the CHOS-CLDN 18.2 cells; also called claudin-18A2
Assay: FACS, CHOS-CLDN18.2 cells, 0.078 µg/ml
EXPERIMENTAL_READOUT: FACS reading
Could you keep your reply to the number by itself?

QP207208 (antibody, human IgG1, V domains shown, Chimeric; also called 51A3; mouse-derived chimeric antibody QP207208) VH: EVQLQQSGPELVKPGASVKMSCKASGYTFTSYIMHWVKQKPGQGLEWIGYINPYNDGTKYNEKFKGKATLTSDKSSSTVYMELSSLTSEDSAVYCCARLGFTTRNAMDYWGQGTSVTVSS VL: DIVMTQSPSSLSVSAGEKVTMNCKSSQSLLNSGNQKNYLAWYQQKPGQPPKLLIYGASTRESGVPDRFTGSGSGTDFTLTISSVQAEDLAVYYCQNDHSYPFTFGSGTKLEIK; 24700

Answer with the recorded FACS reading for the binder listed here: QP024025 (antibody, human IgG1, V domains shown, also called IMAB362; 175D10(IMAB362)) VH: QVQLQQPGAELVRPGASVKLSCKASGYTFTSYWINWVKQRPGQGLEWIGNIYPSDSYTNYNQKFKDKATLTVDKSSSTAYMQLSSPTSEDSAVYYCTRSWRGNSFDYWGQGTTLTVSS VL: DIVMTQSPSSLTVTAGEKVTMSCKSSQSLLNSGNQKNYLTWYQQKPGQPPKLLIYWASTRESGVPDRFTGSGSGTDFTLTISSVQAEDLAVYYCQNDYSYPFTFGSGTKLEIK
18200

Answer with the recorded FACS reading for the binder listed here: QP14631461 (antibody, human IgG1, kappa, V domains shown, also called QP14611463) VH: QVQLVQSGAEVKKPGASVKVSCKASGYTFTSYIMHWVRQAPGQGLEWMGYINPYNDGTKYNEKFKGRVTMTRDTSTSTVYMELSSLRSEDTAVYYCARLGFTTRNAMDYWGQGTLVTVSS VL: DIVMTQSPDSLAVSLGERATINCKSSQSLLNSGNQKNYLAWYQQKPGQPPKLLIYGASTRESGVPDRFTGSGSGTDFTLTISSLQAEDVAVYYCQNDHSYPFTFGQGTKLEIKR
51400

Answer with the recorded FACS reading for the binder listed here: QP14641461 (antibody, human IgG1, kappa, V domains shown, Humanized from QP207208) VH: EVQLVQSGAEVKKPGASVKVSCKASGYTFTSYIMHWVRQAPGQGLEWIGYINPYNDGTKYNEKFKGRVTLTRDKSTSTVYMELSSLRSEDTAVYYCARLGFTTRNAMDYWGQGTLVTVSS VL: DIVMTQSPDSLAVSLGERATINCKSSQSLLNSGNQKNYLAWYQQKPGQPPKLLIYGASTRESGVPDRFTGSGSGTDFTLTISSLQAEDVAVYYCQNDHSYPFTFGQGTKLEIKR
46300

Answer with the recorded FACS reading for the binder listed here: QP14651460 (antibody, human IgG1, kappa, V domains shown, Humanized from QP207208) VH: EVQLVQSGAEVKKPGASVKVSCKASGYTFTSYIMHWVRQAPGQGLEWIGYINPYNDGTKYNEKFKGRVTLTSDKSTSTVYMELSSLRSEDTAVYYCARLGFTTRNAMDYWGQGTLVTVSS VL: DIVMTQSPDSLAVSLGERATINCKSSQSLLNSGNQKNYLAWYQQKPGQPPKLLIYGASTRESGVPDRFSGSGSGTDFTLTISSLQAEDVAVYYCQNDHSYPFTFGQGTKLEIKR
50300

Answer with the recorded FACS reading for the binder listed here: QP14641462 (antibody, human IgG1, kappa, V domains shown, Humanized from QP207208) VH: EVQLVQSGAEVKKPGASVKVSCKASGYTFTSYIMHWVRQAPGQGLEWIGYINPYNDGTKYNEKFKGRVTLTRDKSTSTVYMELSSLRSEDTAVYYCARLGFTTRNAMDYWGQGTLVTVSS VL: DIVMTQSPDSLAVSLGERATINCKSSQSLLNSGNQKNYLAWYQQKPGQPPKLLIYGASTRESGVPDRFTGSGSGTDFTLTISSVQAEDVAVYYCQNDHSYPFTFGQGTKLEIKR
29300
